These data points were gathered from patent US12534534.

Target: T1, NGFR-Fc (human, UniProt P08138 29-250)
T1 construct: bought; also called NGFR (R&D Systems, 367-NR-050/CF); not shown: Fc part of the bought fusion
T1 sequence (looked up): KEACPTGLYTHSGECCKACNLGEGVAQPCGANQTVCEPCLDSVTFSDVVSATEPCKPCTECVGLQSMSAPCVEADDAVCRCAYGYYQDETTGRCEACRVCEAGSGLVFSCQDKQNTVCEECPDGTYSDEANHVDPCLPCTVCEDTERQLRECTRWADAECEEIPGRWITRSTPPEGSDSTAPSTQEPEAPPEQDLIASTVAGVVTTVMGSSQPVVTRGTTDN
Test: SPR, antigen immobilised on CM5 chip
reported_endpoint: binding result

binder="FS20-22-49AA/FS30-15 (bispecific antibody, human IgG1, kappa, L234A L235A, V domains shown, also called FS30-15 in mAb^2 format) VH: EVQLLESGGGLVQPGGSLRLSCAASGFTFSGSGMSWVRQAPGKGLEWVSIIYSTNGDTDYADSVKGRFTISRDNSKNTLYLQMNSLRAEDTAVYYCARDFYDIANYYAFDYWGQGTLVTVSS VL: EIVLTQSPGTLSLSPGERATLSCRASQSVSSSYLAWYQQKPGQAPRLLIYGASSRATGIPDRFSGSGSGTDFTLTISRLEPEDFAVYYCQQAYYDPITFGQGTKVEIKR" result=binds
